SUBJECT OF TEST: Mutant B-Raf (V600E) enzyme (MT B-Raf) (Homo sapiens, UniProt P15056, V600E)
Sequence (P15056 whole entry V600E): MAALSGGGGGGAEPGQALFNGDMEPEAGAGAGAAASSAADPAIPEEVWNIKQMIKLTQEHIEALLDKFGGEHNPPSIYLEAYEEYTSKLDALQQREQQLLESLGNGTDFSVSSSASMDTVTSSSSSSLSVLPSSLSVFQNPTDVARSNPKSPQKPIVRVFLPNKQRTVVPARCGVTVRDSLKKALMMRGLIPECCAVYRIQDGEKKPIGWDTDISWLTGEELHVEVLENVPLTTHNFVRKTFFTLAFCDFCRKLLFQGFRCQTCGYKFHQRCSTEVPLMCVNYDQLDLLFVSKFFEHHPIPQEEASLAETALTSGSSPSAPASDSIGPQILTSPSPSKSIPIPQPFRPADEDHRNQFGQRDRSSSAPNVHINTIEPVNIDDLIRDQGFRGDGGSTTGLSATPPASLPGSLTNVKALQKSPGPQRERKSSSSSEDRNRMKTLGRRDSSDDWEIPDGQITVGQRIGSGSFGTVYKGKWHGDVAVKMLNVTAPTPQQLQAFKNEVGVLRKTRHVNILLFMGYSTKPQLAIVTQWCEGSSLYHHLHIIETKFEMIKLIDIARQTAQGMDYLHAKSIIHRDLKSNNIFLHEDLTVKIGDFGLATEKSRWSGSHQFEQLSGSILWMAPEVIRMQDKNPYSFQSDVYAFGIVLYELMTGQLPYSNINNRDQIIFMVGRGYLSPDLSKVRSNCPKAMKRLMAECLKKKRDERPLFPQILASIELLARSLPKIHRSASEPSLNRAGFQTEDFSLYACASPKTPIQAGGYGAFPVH
ASSAY METHOD TEXT: biochemical
CONDITION LABEL: B-Raf Alpha screen comparable to the described assay; phosphorylation of biotinylated HIS-MEK-AVI; results may be an average of two or more results
QUANTITY NAME: pIC50
Remember, pIC50 is on a log scale: it is -log10 of the molar concentration.

O=S(=O)(c1cccc(Nc2ncc3cc(-c4ccncc4)ccc3n2)c1)N1CCOCC1 [Example 102] | 6.28
CC(C)Oc1cccc(Nc2ncc3cc(-c4ccncc4)ccc3n2)c1 [Example 86] | 5.82
c1cnn(-c2ccc(Nc3ncc4cc(-c5ccncc5)ccc4n3)cc2)c1 [Example 108] | 6.60
COCCNC(=O)c1ccc(Nc2ncc3cc(-c4ccncc4)ccc3n2)c(OC)c1 [Example 114] | 5.17
COCCNC(=O)c1ccc(Nc2ncc3cc(-c4ccnc(OC)c4)ccc3n2)cc1 [Example 115] | 6.28

Exercise: I have this compound here, OCCc1ccc(Nc2ncc3cc(-c4ccncc4)ccc3n2)cc1 [Example 52] , and I need its recorded pIC50.
Solution: 6.92

Exercise: // query: CC(c1ccc(Nc2ncc3cc(-c4ccncc4)ccc3n2)cc1)N(C)C (single isomer, unassigned) [Example 139]
Solution: 7.44
